Documented Herbicidal Efficacy AA = Velvetleaf across a set of molecules
# Tested on: velvetleaf
# method_summary: Upland pre-emergence treatment test, velvetleaf; also: ranges in brackets are in %
# Type: in vivo, velvetleaf (Abutilon theophrasti)
# stated_conditions: pre-emergence soil surface spray, 80 g/ha, 20th day after treatment, greenhouse

Reference set (3 entries):
molecule	observed_property	recorded_value
CCS(=O)(=O)Oc1c(C(=O)c2ccc3c(c2C)C(C)(C)CS3(=O)=O)cnn1C	Herbicidal Efficacy AA = Velvetleaf	5 (0)
Cc1c(C(=O)c2cnn(C)c2O)ccc2c1C(C)(C)CS2(=O)=O	Herbicidal Efficacy AA = Velvetleaf	5 (0)
Cc1c(C(=O)c2cnn(C)c2O)ccc2c1C(C)(C)CS2(=O)=O.[Na]	Herbicidal Efficacy AA = Velvetleaf	4 (1-20)

Record request: Herbicidal Efficacy AA = Velvetleaf value, item CCC(=O)Oc1c(C(=O)c2ccc3c(c2C)C(C)(C)CS3(=O)=O)cnn1C
4 (1-20)

Record request: Herbicidal Efficacy AA = Velvetleaf value, item Cc1c(C(=O)c2cnn(C)c2OC(=O)c2ccccc2)ccc2c1C(C)(C)CS2(=O)=O
5 (0)

Record request: Herbicidal Efficacy AA = Velvetleaf value, item Cc1c(C(=O)c2cnn(C)c2OS(C)(=O)=O)ccc2c1C(C)(C)CS2(=O)=O
5 (0)

Record request: Herbicidal Efficacy AA = Velvetleaf value, item Cc1ccc(S(=O)(=O)Oc2c(C(=O)c3ccc4c(c3C)C(C)(C)CS4(=O)=O)cnn2C)cc1
5 (0)

Record request: Herbicidal Efficacy AA = Velvetleaf value, item CCn1ncc(C(=O)c2cc(C)c3c(c2C)C(C)CS3(=O)=O)c1O (centres unmarked) [Compound (B), reference compound]
1 (61-80)
